assay: CCTE_Shafer_MEA_acute_spike_number: CCTE's Neural Acute Assay for Total Number of Spikes, Shafer Lab (AID 2284008)
Calls of active or inactive are those of the source. How the source made its calls: active means hit-call score of the fitted dose curve at least 0.9, where 1 is the maximum; inactive means score below 0.9.
Outcomes: true = active, false = inactive

[
  {
    "Compound": "CCc1cnc(C2=NC(C)(C(C)C)C(=O)N2)c(C(=O)O)c1 (stereo not drawn)",
    "Assigned Category": "false"
  },
  {
    "Compound": "C=C(C)[C@H]1Cc2c(ccc3c2O[C@@H]2COc4cc(OC)c(OC)cc4[C@@H]2C3=O)O1",
    "Assigned Category": "true"
  },
  {
    "Compound": "CC1=NNC(=O)N(/N=C/c2cccnc2)C1",
    "Assigned Category": "false"
  },
  {
    "Compound": "CCc1cccc(C)c1N(C(=O)CCl)C(C)COC (stereo not drawn)",
    "Assigned Category": "true"
  },
  {
    "Compound": "Cc1ccn2nc(S(=O)(=O)Nc3c(F)cccc3F)nc2n1",
    "Assigned Category": "false"
  },
  {
    "Compound": "CC(C)=CC1C(C(=O)OCN2C(=O)C3=C(CCCC3)C2=O)C1(C)C (stereo not drawn)",
    "Assigned Category": "false"
  },
  {
    "Compound": "CNC(=O)ON=C(SC)C(=O)N(C)C",
    "Assigned Category": "false"
  },
  {
    "Compound": "N#CSCSC#N",
    "Assigned Category": "false"
  },
  {
    "Compound": "CN1COCN(Cc2cnc(Cl)s2)C1=N[N+](=O)[O-]",
    "Assigned Category": "false"
  },
  {
    "Compound": "C[N+]1(C)CCCCC1",
    "Assigned Category": "false"
  },
  {
    "Compound": "CN(C)NC(=O)CCC(=O)O",
    "Assigned Category": "false"
  },
  {
    "Compound": "CCOP(=S)(OCC)Oc1ccc2c(C)c(Cl)c(=O)oc2c1",
    "Assigned Category": "true"
  },
  {
    "Compound": "C[Si](Cn1cncn1)(c1ccc(F)cc1)c1ccc(F)cc1",
    "Assigned Category": "true"
  }
]
